These data points were gathered from patent US20220177490A1.

# PROCEDURE_SUMMARY: Pharmacokinetic study in male CD-1 mice, LC/MS/MS of plasma
# Assay type: in vivo
# PROTOCOL_CONDITIONS: mouse, intravenous, 1 mg/kg, read-out: Half life period T½ (converted)
half-life reference
Dear colleague, please return just the value in h, with no unit written.

COMPOUND	MEASURED_ENDPOINT	UNIT_SPEC	RECORDED_MEASUREMENT
CO/N=C1\OCc2cc(NC(=O)C[C@@H]3N=C(c4ccc(Cl)cc4)c4c(sc(C)c4C)-n4c(C)nnc43)ccc21 [Compound 4]	half-life	h	2.05

Consider the compound Cc1sc2c(c1C)C(c1ccc(Cl)cc1)=N[C@@H](CC(=O)Nc1ccc3c(c1)CO/C3=N\OC(F)F)c1nnc(C)n1-2 [Compound 11] and give its measured half-life.
2.16

* * *

# PROCEDURE_SUMMARY: Pharmacokinetic study in male CD-1 mice, LC/MS/MS of plasma
# Type: in vivo
# PROTOCOL_CONDITIONS: mouse, po, intragastric, 2 mg/kg, read-out: Peak arrival time Tmax
Tmax reference
Dear colleague, please return just the value in h, with no unit written.

COMPOUND	RECORDED_MEASUREMENT
CO/N=C1\OCc2cc(NC(=O)C[C@@H]3N=C(c4ccc(Cl)cc4)c4c(sc(C)c4C)-n4c(C)nnc43)ccc21 [Compound 4]	4

--- query ---
Consider the compound Cc1sc2c(c1C)C(c1ccc(Cl)cc1)=N[C@@H](CC(=O)Nc1ccc3c(c1)CO/C3=N\OC(F)F)c1nnc(C)n1-2 [Compound 11] and give its measured Tmax.
7
